- ASSAYED_TARGET: Carbonic anhydrase 4 (Homo sapiens)
- Sequence (P22748 whole entry): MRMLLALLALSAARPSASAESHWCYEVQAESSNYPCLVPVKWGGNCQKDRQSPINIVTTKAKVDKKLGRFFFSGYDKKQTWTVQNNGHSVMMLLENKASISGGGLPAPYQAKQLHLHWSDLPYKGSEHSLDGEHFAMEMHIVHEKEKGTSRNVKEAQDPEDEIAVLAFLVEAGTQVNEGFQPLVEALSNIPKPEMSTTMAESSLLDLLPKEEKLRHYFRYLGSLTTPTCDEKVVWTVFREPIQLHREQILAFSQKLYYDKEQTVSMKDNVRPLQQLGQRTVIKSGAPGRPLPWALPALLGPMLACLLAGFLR
- EXPERIMENT: Inhibition of human carbonic anhydrase 4 incubated for 15 mins by phenol red staining-based stopped flow CO2 hydrase assay
Can you tell me pKi for the items I'm about to list?
Units for pKi: none; it is -log10 of a concentration expressed in mol/L.

Problem: Please give the measured pKi for this compound: NS(=O)(=O)c1ccc(-c2cnc(C(=O)N3CCNCC3)o2)cc1
Result: 6.38

Problem: Repeat for the following compound: NC1CCN(C(=O)c2ncc(-c3ccc(S(N)(=O)=O)cc3)o2)CC1
Result: 6.59

* * *

- ASSAYED_TARGET: Carbonic anhydrase 1 (Homo sapiens, UniProt P00915)
- Sequence (P00915 whole entry): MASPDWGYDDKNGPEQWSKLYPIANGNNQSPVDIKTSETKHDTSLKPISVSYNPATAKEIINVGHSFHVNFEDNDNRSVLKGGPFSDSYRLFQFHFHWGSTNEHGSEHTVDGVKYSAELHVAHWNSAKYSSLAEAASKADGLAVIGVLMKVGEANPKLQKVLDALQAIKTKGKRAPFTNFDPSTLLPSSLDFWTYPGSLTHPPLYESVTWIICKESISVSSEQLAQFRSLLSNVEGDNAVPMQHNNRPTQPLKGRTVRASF
For each of the compounds below, state its Ki.
Please answer using a numeric value trailed by its unit.

Problem: So what does the record say about Ki for NCCNC(=O)c1ncc(-c2ccc(S(N)(=O)=O)cc2)o1 ?
Result: 101 nM

Problem: Also need NS(=O)(=O)c1ccc(-c2cnc(C(=O)NC3CCNCC3)o2)cc1 , thanks.
Result: 50.8 nM
